METHOD_DESCRIPTION: qHTS drug screen for cell cycle checkpoint inhibitors in PARPi-resistant BRCA-mutant ovarian cancer cell lines. (AID 1963452)
DETAILS: PEO1/OlaR viability, CellTiter-Glo luminescence, 96 h; active compounds read low
Please go through the items and note down their Z-AUC.
When you answer, write just the number.

-- ask What value of Z-AUC has been recorded for this entry: O=C(O)c1ccc2c(c1)nc(Nc1cccc(Cl)c1)c1ccncc12
-- reply -0.0299

-- ask Please do the same for O=C(c1ccc(Nc2nccc(-c3cc4ccccc4s3)n2)cc1)N1CCC(N2CCCC2)CC1 as well.
-- reply 0.507

-- ask Queued: OCCCNc1cc(-c2ccnc(Nc3cccc(Cl)c3)n2)ccn1
-- reply -1.99

-- ask Would you kindly repeat that for Cc1cc(CN2CCN(c3c(Br)cnc4nc(-c5ccc(N6CCN(C)CC6)cc5)[nH]c34)CC2)no1 ?
-- reply 0.133

-- ask Next compound: CN1CCC(CNc2ccc3ncc(-c4cccc(OC(F)(F)F)c4)n3n2)CC1
-- reply -0.465

-- ask O=c1[nH]nc(Sc2ncc([N+](=O)[O-])s2)n1-c1ccc2c(c1)OCCO2 , same question.
-- reply 0.0772

-- ask Now the same for COc1ccc(CC2c3cc(OC)c(OC)cc3CC[N+]2(C)CCC(=O)OCCCCCOC(=O)CC[N+]2(C)CCc3cc(OC)c(OC)cc3C2Cc2ccc(OC)c(OC)c2)cc1OC (stereo not given)
-- reply 0.349

-- ask What do you have for CC(C)c1cc(-c2n[nH]c(=O)n2-c2ccc3c(ccn3C)c2)c(O)cc1O ?
-- reply -0.89

-- ask Ok, now Cc1ccc(C(=O)Nc2ccc(CN3CCN(C)CC3)c(C(F)(F)F)c2)cc1C#Cc1cnc2cccnn12
-- reply -2.19

-- ask Entry to check: COc1ccc(C(=O)CC2(O)C(=O)Nc3c(Cl)ccc(Cl)c32)cc1 (stereo not given)
-- reply -0.119

-- ask // same read-out, input: Cc1ccc(-c2ncn(-c3ccc(Nc4nccc(-c5cccc(N6CCOCC6)c5)n4)cc3)n2)cn1
-- reply -1.4

-- ask Thanks! And Cc1cc(Nc2cc(NC(=O)c3c(Cl)cccc3Cl)ccn2)nc(N)n1 ?
-- reply -0.241

-- ask Also check CC(C)Nc1cc(C(F)(F)F)cc2nc(NC(=O)c3cccnc3)nn12
-- reply 0.923

-- ask Also CC(C)c1cc(C(=O)N2Cc3ccc(CN4CCN(C)CC4)cc3C2)c(O)cc1O ?
-- reply -1.06

-- ask Thanks! And CC(C)(C)OC(=O)Nc1ccc(-c2cc(C(=O)NCCCCCCC(=O)NO)no2)cc1 ?
-- reply -0.0304

-- ask Entry Clc1ccc2ncc(-c3cccc(NC4CNC4)n3)n2c1 please
-- reply -0.578

-- ask Item: CS(=O)(=O)c1ccc(-c2cnc(N)c(C(=O)Nc3ccccc3)n2)cc1
-- reply -0.54

-- ask What about this compound? Nc1nc(-c2nn(Cc3ccccc3F)c3ncccc23)nc(N)c1N1CCOCC1
-- reply -0.481

-- ask What about Cc1cn2cc(C(=O)N(C)CCO)cc(N[C@@H]3CCOc4cccc(C)c43)c2n1 ?
-- reply 1.4

-- ask For Cc1coc2c1C(=O)C(=O)c1c-2ccc2c1CCCC2(C)C then?
-- reply 1.2

* * *

METHOD_DESCRIPTION: Primary qHTS for small molecule stabilizers of the endoplasmic reticulum resident proteome: Secreted ER Calcium Modulated Protein (SERCaMP) assay (AID 1508630)
DETAILS: SH-SY5Y GLuc-SERCaMP (Gaussia luciferase released on ER calcium loss) secretion, thapsigargin, luminescence; series mostly up to 38.4 µM
Results filed as inconclusive are left out. Calls of active or inactive are those of the source. Calls come from the whole dose curve; as a rule, active = well fitted inhibition curve with a large enough effect; inconclusive = small, poorly fitted or top-dose-only effect; inactive = no such curve, though single readings can be large or run the other way.
MEASUREMENT_NAME: outcome

1. CC(NCc1ccc2c(c1)nc(NC(=O)c1ccc(-c3cn[nH]c3)s1)n2CC(C)(C)O)C(C)(C)C (centres undefined) : inactive
2. CC(C)c1cc(-c2n[nH]c(=O)n2-c2ccc3c(ccn3C)c2)c(O)cc1O : inactive
3. Cc1cnc(-c2cnc(NCCNc3ccc(C#N)cn3)nc2-c2ccc(Cl)cc2Cl)[nH]1 : inactive
4. Cc1cc(Nc2ncnc3ccc(-c4ccc(CNCCS(C)(=O)=O)o4)cc23)ccc1Oc1ccn2ncnc2c1 : inactive
5. O=c1[nH]nc(Sc2ncc([N+](=O)[O-])s2)n1-c1ccc2c(c1)OCCO2 : inactive
6. COc1cc2ncnc(Nc3ccc(F)c(Cl)c3)c2cc1NC(=O)C=CCN1CCCCC1 : inactive
7. Cc1ccc(C(=O)Nc2ccc(CN3CCN(C)CC3)c(C(F)(F)F)c2)cc1C#Cc1cnc2cccnn12 : inactive
8. Cn1cc(-c2[nH]c3cc(NC(=O)[C@H](N)C4CCCCC4)cc4c3c2C=NNC4=O)cn1 : inactive
9. COc1cc2c(Oc3ccc(-c4cnc(Nc5ccc(F)cc5)n(C)c4=O)cc3F)ccnc2cc1OCCCN1CCOCC1 : inactive
10. CC(C)(O)CCc1ccc(OCc2cc(-c3cccc(OC(F)F)c3)c3ncccc3c2)cc1 : inactive

-- ask # query: outcome of entry COc1cc2nccc(Oc3ccc(NC(=O)C4(C(=O)Nc5ccc(F)cc5)CC4)cc3)c2cc1OC
-- reply inactive

-- ask And the next one, O=C(CCCCCCNC(=O)c1cnc(N(c2ccccc2)c2ccccc2)nc1)NO ?
-- reply inactive

-- ask Same question for O=C(O)C1(Cc2cccc(Nc3nccs3)n2)CCC(Oc2cccc(Cl)c2F)CC1 (centres undefined) please.
-- reply inactive

-- ask Same thing, different molecule: NC(=O)c1c(OCc2c(F)cc(Br)cc2F)nsc1NC(=O)NCCCCN1CCCC1
-- reply inactive
